- Experimental system: T1, PDZD7_3, Q9H5P4
- T1 sequence (Q9H5P4 857-944, limits assumed, looked up): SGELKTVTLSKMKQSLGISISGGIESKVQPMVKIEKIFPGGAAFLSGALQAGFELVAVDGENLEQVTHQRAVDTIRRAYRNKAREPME
- Assay explanation: holdup assay
- Design: key: below the threshold = too weak to quantify, mostly under pKd 3.1 to 4
- Details: plain residues with an end cap or a label only (N-terminal biotin on a linker: ttds)
Parameter measured: pKd
// return just the number, without any unit appended

q: Fill in: pKd of PVRVCEETSL [OTULIN, Q96BN8] is ___
a: 4.41

q: Please do the same for EMDRRPATVV [PLCB4, Q15147] as well.
a: 5.03

q: Please do the same for NDPAWDETNL [ARHGEF7, Q14155;Q14155-1] as well.
a: 4.24

q: Please do the same for RPLPRKVSQL [DOCK4, Q8N1I0] as well.
a: 4.5

q: Please do the same for RLPKIKETTV [FRMPD4, Q14CM0] as well.
a: 5.01

q: Please do the same for VDFPPKESSL [ACVR2A, P27037] as well.
a: 3.61

q: Please do the same for DKDPHSETAL [TMIGD1, Q6UXZ0] as well.
a: 4.07

q: Please do the same for RLQRRRETQV [HPV18-E6, P06463] as well.
a: 3.98

q: Please do the same for SKPTRRETEV [HPV35-E6, P27228] as well.
a: 4.3
